Source of measurements: patent US20230145793A1

STUDY_SYSTEM: A2B receptor (Homo sapiens)
Construct: host or cells: CHO-K1 (co-expressing Gα15)
Sequence (P29275 whole entry): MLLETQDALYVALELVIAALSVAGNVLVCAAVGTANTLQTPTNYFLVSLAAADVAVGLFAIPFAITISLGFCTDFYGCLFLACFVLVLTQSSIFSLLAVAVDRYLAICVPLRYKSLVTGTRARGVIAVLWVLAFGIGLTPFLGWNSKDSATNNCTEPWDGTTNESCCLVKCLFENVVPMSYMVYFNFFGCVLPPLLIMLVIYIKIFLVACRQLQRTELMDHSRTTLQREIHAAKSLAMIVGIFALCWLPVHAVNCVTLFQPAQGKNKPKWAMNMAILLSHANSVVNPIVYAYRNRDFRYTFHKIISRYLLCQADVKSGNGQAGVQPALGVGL
EXPERIMENT_SUMMARY: Test 1: inhibitory activity to the A2B receptor, cAMP HTRF in CHO-K1/ADORA2B/Gα15 cells, NECA 10 nM
Type: cell-based
MEASUREMENT_KIND: IC50 (µM)

Known IC50 results, listed for orientation:
COMPOUND | STUDY_SYSTEM | REPORTED_VALUE
Cc1c(C#N)cccc1-c1nc(N)c(F)c(-c2cn(Cc3cc(C)n(C)n3)nn2)n1 [Compound L-79] | A2B receptor (Homo sapiens) | 0.025
Cc1c(C#N)cccc1-c1nc(N)c(F)c(-c2cn(Cc3cccc(C4(O)COC4)n3)nn2)n1 [Compound L-53] | A2B receptor (Homo sapiens) | 0.004
Cc1c(C#N)cccc1-c1nc(N)c(F)c(-c2cn(Cc3ccn(C4CCN(C)C4)n3)nn2)n1 [Compound L-90] | A2B receptor (Homo sapiens) | 0.029
COCCn1ccc(Cn2cc(-c3nc(-c4cccc(C#N)c4C)nc(N)c3F)nn2)n1 [Compound L-78] | A2B receptor (Homo sapiens) | 0.003
Cc1c(C#N)cccc1-c1nc(N)c(Cl)c(-c2cn(Cc3ccn(C4COC4)n3)nn2)n1 [Compound L-93] | A2B receptor (Homo sapiens) | 0.004
Cc1c(C#N)cccc1-c1nc(N)c(F)c(-c2cn(Cc3cccc(C(C)(C)CO)n3)nn2)n1 [Compound L-63] | A2B receptor (Homo sapiens) | 0.005
CC(C)(O)c1cccc(Cn2cc(-c3nc(-c4cccc(C#N)c4)nc4c3OCC(=O)N4)nn2)n1 [Compound L-4] | A2B receptor (Homo sapiens) | 0.006
Cc1c(C#N)cccc1-c1nc(N)c(F)c(-c2cn(Cc3cccn(C4CC4)c3=O)nn2)n1 [Compound L-17] | A2B receptor (Homo sapiens) | 0.007

I: CCC(C)(O)c1cccc(Cn2cc(-c3nc(-c4cccc(C#N)c4C)nc(N)c3F)nn2)n1 [Compound L-85]
II: Cc1c(C#N)cccc1-c1nc(N)c(F)c(-c2cn(Cc3ccn(CC(C)(C)O)n3)nn2)n1 [Compound L-76]
III: COCc1cccc(Cn2cc(-c3nc(N)nc(-c4cccc(C#N)c4C)c3F)nn2)n1 [Compound L-60]
IV: Cc1c(C#N)cccc1-c1nc(N)c(F)c(-c2cn(Cc3cccc(N4CCC(O)C4)n3)nn2)n1 [Compound L-65]
Inquiry: Which order do these items take when sorted by rising IC50? List them. API: response body holds the labels in the requested order.
Reply text: I, II, IV, III
